Values from patent US20120219615A1

Test: Phase I clinical study: pharmacokinetics after subcutaneous administration
Type: in vivo
Settings: plasma, sc; human, s.c., first dose, 3.9 mg/m^2 (~0.105 mg/kg); read-out: Tmax
measurement_kind: Tmax (min)

>>> readout_number("CCCN(CCC)C(=O)C1=Cc2ccc(-c3ccc(C(=O)N4CCCC4)cc3)cc2N=C(N)C1")
30

---

Assay: Phase I clinical study: pharmacokinetics after subcutaneous administration
Format: in vivo
Conditions: plasma, sc; human, s.c., first dose, 1.3 mg/m^2 (~0.035 mg/kg); read-out: T1/2 (converted)
Method: Study Procedures: VTX-2337 was administered weekly via subcutaneous injection on Days 1, 8, and 15 of a 28-day dosing cycle for two cycles. […] Samples were collected at 0.5, 1, 1.5, 2, 4, 8, and 24 hours after subcutaneous administration of the first dose of VTX-2337 and plasma levels of VTX-2337 were quantified by LC-MS/MS. […] Dose normalized (DN) values for Cmax and AUC(0-∞) were calculated.
measurement_kind: half-life (h)

>>> readout_number("CCCN(CCC)C(=O)C1=Cc2ccc(-c3ccc(C(=O)N4CCCC4)cc3)cc2N=C(N)C1 [VTX-2337]")
5.6

---

Assay: Phase I clinical study: pharmacokinetics after subcutaneous administration
Type: in vivo
Settings: plasma, sc; human, s.c., first dose, 0.8 mg/m^2 (~0.022 mg/kg); read-out: Tmax
Protocol: Study Procedures: VTX-2337 was administered weekly via subcutaneous injection on Days 1, 8, and 15 of a 28-day dosing cycle for two cycles. […] Samples were collected at 0.5, 1, 1.5, 2, 4, 8, and 24 hours after subcutaneous administration of the first dose of VTX-2337 and plasma levels of VTX-2337 were quantified by LC-MS/MS. […] Dose normalized (DN) values for Cmax and AUC(0-∞) were calculated.
measurement_kind: Tmax (min)

>>> readout_number("CCCN(CCC)C(=O)C1=Cc2ccc(-c3ccc(C(=O)N4CCCC4)cc3)cc2N=C(N)C1")
30

---

Assay: Phase I clinical study: pharmacokinetics after subcutaneous administration
Assay type: in vivo
Conditions: plasma, sc; human, first dose, 0.1 mg/m^2 (~0.0022 mg/kg)
measurement_kind: AUC(0-inf)

>>> result("CCCN(CCC)C(=O)C1=Cc2ccc(-c3ccc(C(=O)N4CCCC4)cc3)cc2N=C(N)C1")
"3.12 ng·h/mL"

---

Assay: Phase I clinical study: pharmacokinetics after subcutaneous administration
Assay type: in vivo
Details: plasma, sc; human, s.c., first dose, 0.1 mg/m^2 (~0.0022 mg/kg); read-out: T1/2 (converted)
measurement_kind: half-life (h)

>>> readout_number("CCCN(CCC)C(=O)C1=Cc2ccc(-c3ccc(C(=O)N4CCCC4)cc3)cc2N=C(N)C1")
1.7

---

Assay: Phase I clinical study: pharmacokinetics after subcutaneous administration
Format: in vivo
Conditions: plasma, sc; human, first dose, 2.0 mg/m^2 (~0.054 mg/kg)
Method: Study Procedures: VTX-2337 was administered weekly via subcutaneous injection on Days 1, 8, and 15 of a 28-day dosing cycle for two cycles. […] Samples were collected at 0.5, 1, 1.5, 2, 4, 8, and 24 hours after subcutaneous administration of the first dose of VTX-2337 and plasma levels of VTX-2337 were quantified by LC-MS/MS. […] Dose normalized (DN) values for Cmax and AUC(0-∞) were calculated.
measurement_kind: AUC(0-inf) (µg·h/mL)

>>> readout_number("CCCN(CCC)C(=O)C1=Cc2ccc(-c3ccc(C(=O)N4CCCC4)cc3)cc2N=C(N)C1 [VTX-2337]")
0.0592

---

Experiment: Phase I clinical study: pharmacokinetics after subcutaneous administration
Assay type: in vivo
Details: plasma, sc; human, first dose, 0.8 mg/m^2 (~0.022 mg/kg)
measurement_kind: Cmax (ng/mL)

>>> readout_number("CCCN(CCC)C(=O)C1=Cc2ccc(-c3ccc(C(=O)N4CCCC4)cc3)cc2N=C(N)C1")
5.93

---

Test: Phase I clinical study: pharmacokinetics after subcutaneous administration
Assay type: in vivo
Details: plasma, sc; human, s.c., first dose, 0.4 mg/m^2 (~0.011 mg/kg); read-out: T1/2 (converted)
measurement_kind: half-life (h)

>>> readout_number("CCCN(CCC)C(=O)C1=Cc2ccc(-c3ccc(C(=O)N4CCCC4)cc3)cc2N=C(N)C1")
6.6

---

Assay: Phase I clinical study: pharmacokinetics after subcutaneous administration
Format: in vivo
Conditions: plasma, sc; human, s.c., first dose, 3.9 mg/m^2 (~0.105 mg/kg); read-out: T1/2 (converted)
measurement_kind: half-life (h)

>>> readout_number("CCCN(CCC)C(=O)C1=Cc2ccc(-c3ccc(C(=O)N4CCCC4)cc3)cc2N=C(N)C1")
5.3

---

Test: Phase I clinical study: pharmacokinetics after subcutaneous administration
Type: in vivo
Conditions: plasma, sc; human, s.c., first dose, 2.8 mg/m^2 (~0.076 mg/kg); read-out: T1/2 (converted)
measurement_kind: half-life (h)

>>> readout_number("CCCN(CCC)C(=O)C1=Cc2ccc(-c3ccc(C(=O)N4CCCC4)cc3)cc2N=C(N)C1 [VTX-2337]")
5.7

---

Assay: Phase I clinical study: pharmacokinetics after subcutaneous administration
Type: in vivo
Settings: plasma, sc; human, s.c., first dose, 2.8 mg/m^2 (~0.076 mg/kg); read-out: Tmax
measurement_kind: Tmax (min)

>>> readout_number("CCCN(CCC)C(=O)C1=Cc2ccc(-c3ccc(C(=O)N4CCCC4)cc3)cc2N=C(N)C1")
30

---

Assay: Phase I clinical study: pharmacokinetics after subcutaneous administration
Assay type: in vivo
Conditions: plasma, sc; human, s.c., first dose, 1.3 mg/m^2 (~0.035 mg/kg); read-out: Tmax
Protocol: Study Procedures: VTX-2337 was administered weekly via subcutaneous injection on Days 1, 8, and 15 of a 28-day dosing cycle for two cycles. […] Samples were collected at 0.5, 1, 1.5, 2, 4, 8, and 24 hours after subcutaneous administration of the first dose of VTX-2337 and plasma levels of VTX-2337 were quantified by LC-MS/MS. […] Dose normalized (DN) values for Cmax and AUC(0-∞) were calculated.
measurement_kind: Tmax

>>> result("CCCN(CCC)C(=O)C1=Cc2ccc(-c3ccc(C(=O)N4CCCC4)cc3)cc2N=C(N)C1")
"30 min"

---

Assay: Phase I clinical study: pharmacokinetics after subcutaneous administration
Assay type: in vivo
Settings: plasma, sc; human, first dose, 0.4 mg/m^2 (~0.011 mg/kg)
measurement_kind: Cmax

>>> result("CCCN(CCC)C(=O)C1=Cc2ccc(-c3ccc(C(=O)N4CCCC4)cc3)cc2N=C(N)C1")
"6.69 ng/mL"

---

Test: Phase I clinical study: pharmacokinetics after subcutaneous administration
Assay type: in vivo
Settings: plasma, sc; human, s.c., first dose, 0.2 mg/m^2 (~0.0054 mg/kg); read-out: T1/2 (converted)
measurement_kind: half-life

>>> result("CCCN(CCC)C(=O)C1=Cc2ccc(-c3ccc(C(=O)N4CCCC4)cc3)cc2N=C(N)C1")
"3 h"

---

Experiment: Phase I clinical study: pharmacokinetics after subcutaneous administration
Assay type: in vivo
Conditions: plasma, sc; human, s.c., first dose, 0.1 mg/m^2 (~0.0022 mg/kg); read-out: Tmax
measurement_kind: Tmax (min)

>>> readout_number("CCCN(CCC)C(=O)C1=Cc2ccc(-c3ccc(C(=O)N4CCCC4)cc3)cc2N=C(N)C1")
30

---

Molecular target: TLR8 (Homo sapiens, UniProt Q9NR97)
Construct: assessed in peripheral blood mononuclear cells (PBMCs) from 15 healthy donors; endogenous in cells; host or cells: PBMCs from 15 healthy donors
Sequence (Q9NR97 27-1041): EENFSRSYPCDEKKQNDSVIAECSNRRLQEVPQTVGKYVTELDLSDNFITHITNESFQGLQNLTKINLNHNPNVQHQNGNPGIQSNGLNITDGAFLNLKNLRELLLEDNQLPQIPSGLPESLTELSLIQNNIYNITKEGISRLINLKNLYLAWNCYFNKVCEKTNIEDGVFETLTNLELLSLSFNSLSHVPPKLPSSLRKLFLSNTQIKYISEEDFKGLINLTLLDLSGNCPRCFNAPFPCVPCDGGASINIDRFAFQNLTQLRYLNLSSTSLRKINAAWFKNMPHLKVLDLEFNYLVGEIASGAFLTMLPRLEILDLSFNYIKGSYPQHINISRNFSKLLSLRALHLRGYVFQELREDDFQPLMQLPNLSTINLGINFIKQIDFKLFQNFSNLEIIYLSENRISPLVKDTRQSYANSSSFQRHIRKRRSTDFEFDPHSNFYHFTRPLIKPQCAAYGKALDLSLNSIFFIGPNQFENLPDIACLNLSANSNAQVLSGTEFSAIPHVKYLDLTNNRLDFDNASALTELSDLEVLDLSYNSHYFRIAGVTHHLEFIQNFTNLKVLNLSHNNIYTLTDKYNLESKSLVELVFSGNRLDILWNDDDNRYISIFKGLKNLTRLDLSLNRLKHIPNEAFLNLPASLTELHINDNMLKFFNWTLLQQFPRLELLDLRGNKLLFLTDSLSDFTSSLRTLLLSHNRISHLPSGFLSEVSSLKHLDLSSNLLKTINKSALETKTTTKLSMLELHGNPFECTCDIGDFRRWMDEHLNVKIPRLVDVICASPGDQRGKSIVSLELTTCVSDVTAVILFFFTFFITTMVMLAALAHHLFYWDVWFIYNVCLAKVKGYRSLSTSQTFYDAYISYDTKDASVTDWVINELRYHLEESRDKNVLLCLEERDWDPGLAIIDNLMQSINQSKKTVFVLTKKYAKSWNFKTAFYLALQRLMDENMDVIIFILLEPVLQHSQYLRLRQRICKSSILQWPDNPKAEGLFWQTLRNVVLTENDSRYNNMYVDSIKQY
Test: TNFα production in PBMCs (marker of TLR8 activation)
Type: cell-based
Conditions: PBMCs from 15 healthy donors
pEC50: −log10 of the molar value.
measurement_kind: pEC50

>>> readout_number("CCCN(CCC)C(=O)C1=Cc2ccc(-c3ccc(C(=O)N4CCCC4)cc3)cc2N=C(N)C1 [VTX-2337]")
7.13

---

Assay: Phase I clinical study: pharmacokinetics after subcutaneous administration
Format: in vivo
Conditions: plasma, sc; human, first dose, 1.3 mg/m^2 (~0.035 mg/kg)
Procedure: Study Procedures: VTX-2337 was administered weekly via subcutaneous injection on Days 1, 8, and 15 of a 28-day dosing cycle for two cycles. […] Samples were collected at 0.5, 1, 1.5, 2, 4, 8, and 24 hours after subcutaneous administration of the first dose of VTX-2337 and plasma levels of VTX-2337 were quantified by LC-MS/MS. […] Dose normalized (DN) values for Cmax and AUC(0-∞) were calculated.
measurement_kind: Cmax

>>> result("CCCN(CCC)C(=O)C1=Cc2ccc(-c3ccc(C(=O)N4CCCC4)cc3)cc2N=C(N)C1")
"10.9 ng/mL"

---

Assay: Phase I clinical study: pharmacokinetics after subcutaneous administration
Assay type: in vivo
Conditions: plasma, sc; human, s.c., first dose, 2.0 mg/m^2 (~0.054 mg/kg); read-out: Tmax
measurement_kind: Tmax

>>> result("CCCN(CCC)C(=O)C1=Cc2ccc(-c3ccc(C(=O)N4CCCC4)cc3)cc2N=C(N)C1")
"30 min"
